Test system: BDF1 mice, P388 leukemia ip, median survival T/C
Test: NCI In Vivo Anticancer Drug Screen. Data for tumor model P388 Leukemia (intraperitoneal) in B6D2F1 (BDF1) mice
Conditions: endpoint: median survival time; dose: 100.0 mg/kg/injection; schedule: Q01DX009 (ip); vehicle: saline; higher = longer survival
Toxic doses and inconclusive results are not listed.
Known T/C of a selection of compounds
recorded-metric: T/C

- compound: "O=C(O)/C=C/C(=O)Nc1cccc(Oc2ccc([N+](=O)[O-])cc2[N+](=O)[O-])c1"
  target-desc: "BDF1 mice, P388 leukemia ip, median survival T/C"
  result: "118 % of control"
- compound: "CC(=O)NC(CC(=O)O)C(=O)O (configuration not stated)"
  target-desc: "BDF1 mice, P388 leukemia ip, median survival T/C"
  result: "105 % of control"
- compound: "Brc1ccc(C[N+]23CN4CN(CN(C4)C2)C3)cc1"
  target-desc: "BDF1 mice, P388 leukemia ip, median survival T/C"
  result: "115 % of control"
- compound: "COC(=O)CCCNC(=O)/C=C1/c2cc(OC)c(OC)cc2CCC1S(=O)(=O)OC (configuration not stated)"
  target-desc: "BDF1 mice, P388 leukemia ip, median survival T/C"
  result: "104 % of control"
- compound: "O=S(O)OS(=O)O"
  target-desc: "BDF1 mice, P388 leukemia ip, median survival T/C"
  result: "100 % of control"
- compound: "O=C1NCN(c2ccccc2)C12CCNCC2"
  target-desc: "BDF1 mice, P388 leukemia ip, median survival T/C"
  result: "100 % of control"
- compound: "C1CCNCC1.O=C([CH-]C(=O)C(F)(F)F)c1cccs1.O=C([CH-]C(=O)C(F)(F)F)c1cccs1.O=C([CH-]C(=O)C(F)(F)F)c1cccs1.O=C([CH-]C(=O)C(F)(F)F)c1cccs1.[Eu+3]"
  target-desc: "BDF1 mice, P388 leukemia ip, median survival T/C"
  result: "122 % of control"
- compound: "C=CCC(CC)C(=O)O (configuration not stated)"
  target-desc: "BDF1 mice, P388 leukemia ip, median survival T/C"
  result: "104 % of control"
- compound: "CC1(c2ccccc2)O[C@@H]2C[C@H]3[C@@H]4CCC5=CC(=O)C=C[C@]5(C)[C@@]4(F)[C@@H](O)C[C@]3(C)[C@]2(C(=O)CO)O1 (some centres not stated)"
  target-desc: "BDF1 mice, P388 leukemia ip, median survival T/C"
  result: "100 % of control"
- compound: "OCC12COCN1COC2"
  target-desc: "BDF1 mice, P388 leukemia ip, median survival T/C"
  result: "104 % of control"
- compound: "O=C(O)CCCC1CCC(=O)CC1"
  target-desc: "BDF1 mice, P388 leukemia ip, median survival T/C"
  result: "90 % of control"
- compound: "NC(N)=NC(N)=Nc1cnccn1"
  target-desc: "BDF1 mice, P388 leukemia ip, median survival T/C"
  result: "120 % of control"
- compound: "Nc1[nH]c(=O)nc2nc[nH]c12"
  target-desc: "BDF1 mice, P388 leukemia ip, median survival T/C"
  result: "119 % of control"
- compound: "CC1(c2ccco2)NC(=O)N(Cl)C1=O (configuration not stated)"
  target-desc: "BDF1 mice, P388 leukemia ip, median survival T/C"
  result: "98 % of control"
- compound: "CCOc1ccn(CC(=O)Nc2nccs2)c(=O)n1"
  target-desc: "BDF1 mice, P388 leukemia ip, median survival T/C"
  result: "104 % of control"
- compound: "N=C(N)Sc1cc(O)ccc1O"
  target-desc: "BDF1 mice, P388 leukemia ip, median survival T/C"
  result: "115 % of control"
- compound: "CSc1ccc(C(O)CNC(C)C)cc1C (configuration not stated)"
  target-desc: "BDF1 mice, P388 leukemia ip, median survival T/C"
  result: "100 % of control"
- compound: "COc1ccc(Cc2nccc3c(OC)c(OC)ccc23)cc1OC"
  target-desc: "BDF1 mice, P388 leukemia ip, median survival T/C"
  result: "119 % of control"
- compound: "OC1CCC(O)C1(Cl)Cl (configuration not stated)"
  target-desc: "BDF1 mice, P388 leukemia ip, median survival T/C"
  result: "98 % of control"
- compound: "COc1cc(C=NC(CO)C(=O)O)ccc1O.COc1cc(C=NC(CO)C(=O)O)ccc1O.[Fe] (configuration not stated)"
  target-desc: "BDF1 mice, P388 leukemia ip, median survival T/C"
  result: "100 % of control"
- compound: "COc1cccc2c1C(=O)c1c(O)c3c(c(O)c1C2=O)C[C@@](O)(C(=O)CO)C[C@@H]3OC1CC(NC(=S)Nc2ccc(F)cc2)C(O)C(C)O1 (some centres not stated)"
  target-desc: "BDF1 mice, P388 leukemia ip, median survival T/C"
  result: "122 % of control"
- compound: "CC(C)=C=CCN(C)Cc1ccccc1"
  target-desc: "BDF1 mice, P388 leukemia ip, median survival T/C"
  result: "103 % of control"

###

System: BDF1 mice, P388 leukemia ip, median survival T/C
Assay: NCI In Vivo Anticancer Drug Screen. Data for tumor model P388 Leukemia (intraperitoneal) in B6D2F1 (BDF1) mice
Conditions: endpoint: median survival time; dose: 200.0 mg/kg/injection; schedule: Q01DX009 (ip); vehicle: water; higher = longer survival
Toxic doses and inconclusive results are not listed. Residues, ends and D or L forms follow the SMILES beside them.

- compound: "CN1CC2([N+](=O)[O-])C=CCC([N+](=O)[O-])(C1)C2 (centres undefined)"
  target-desc: "BDF1 mice, P388 leukemia ip, median survival T/C"
  T/C: "99 % of control"
- compound: "N/C(=N\\O)c1cccnc1"
  target-desc: "BDF1 mice, P388 leukemia ip, median survival T/C"
  T/C: "107 % of control"
- compound: "CCOC(CN(Cc1ccc(OC)c(OCc2ccccc2)c1)S(=O)(=O)c1ccc(C)cc1)OCC"
  target-desc: "BDF1 mice, P388 leukemia ip, median survival T/C"
  T/C: "112 % of control"
- compound: "CCOC(=O)N=C=O"
  target-desc: "BDF1 mice, P388 leukemia ip, median survival T/C"
  T/C: "110 % of control"
- compound: "NCCCCC(N)C(=O)NC(CCCN=C(N)N)C(N)=O (stereo not drawn) (H-Lys-Arg-NH2; configuration not given here)"
  target-desc: "BDF1 mice, P388 leukemia ip, median survival T/C"
  T/C: "106 % of control"
- compound: "CC(C)C(=O)c1ccc(-c2ccccc2)cc1"
  target-desc: "BDF1 mice, P388 leukemia ip, median survival T/C"
  T/C: "102 % of control"
- compound: "O=C1C(c2ccccc2)=C(c2ccccc2)C(c2ccccc2)=C1c1ccccc1"
  target-desc: "BDF1 mice, P388 leukemia ip, median survival T/C"
  T/C: "91 % of control"
- compound: "NC(=O)Nc1cc(NC(N)=O)cc(N(CCO)CCO)c1"
  target-desc: "BDF1 mice, P388 leukemia ip, median survival T/C"
  T/C: "96 % of control"
- compound: "O=C(NCCCl)NC1C(O)OC(CO)C(O)C1O (centres undefined)"
  target-desc: "BDF1 mice, P388 leukemia ip, median survival T/C"
  T/C: "91 % of control"

###

System: BDF1 mice, P388 leukemia ip, median survival T/C
Test: NCI In Vivo Anticancer Drug Screen. Data for tumor model P388 Leukemia (intraperitoneal) in B6D2F1 (BDF1) mice
Settings: endpoint: median survival time; dose: 50.0 mg/kg/injection; schedule: Q04DX003 (ip); vehicle: water
Toxic doses and inconclusive results are not listed. Rule for the calls: active = survival T/C of 150% or more; inactive = T/C below 125% in these data. Residues, ends and D or L forms follow the SMILES beside them.
Outcome codes: yes (active), no (inactive)

- compound: "NCCCCC(N)C(=O)NC(CCCN=C(N)N)C(N)=O (stereo not drawn) (H-Lys-Arg-NH2; configuration not given here)"
  class-label: "no"
- compound: "C[n+]1c(-c2cc(Cl)cc(Cl)c2)c2cc([N+](=O)[O-])ccc2c2ccccc21"
  class-label: "no"
- compound: "COc1cc2cc3c4cc(OC)c(OC)cc4cc[n+]3c(C)c2cc1OC (tested in a mixture with another compound)"
  class-label: "yes"
- compound: "COc1ccc(C(=O)/C=C/c2ccc(OCc3ccccc3)c(OC)c2)cc1OC"
  class-label: "no"

###

System: BDF1 mice, P388 leukemia ip, median survival T/C
Assay: NCI In Vivo Anticancer Drug Screen. Data for tumor model P388 Leukemia (intraperitoneal) in B6D2F1 (BDF1) mice
Settings: endpoint: median survival time; dose: 400.0 mg/kg/injection; schedule: Q04DX003 (ip); vehicle: saline with Tween-80; higher = longer survival
Toxic doses and inconclusive results are not listed.
recorded-metric: T/C

- compound: "S=C(/N=C1\\CCC\\C1=C/c1ccccc1)/N=C1\\CCC\\C1=C/c1ccccc1"
  result: "115 % of control"
- compound: "Cc1sc2c(c1-c1ccccc1)C(=O)CCCN2"
  result: "105 % of control"
- compound: "COC1(c2cccs2)OC1(C)C (stereo not drawn)"
  result: "104 % of control"
- compound: "Cc1cccc(/C=N\\OCc2ccccc2)n1"
  result: "118 % of control"
- compound: "Cc1cc(-c2ccccc2)[s+]s1"
  result: "118 % of control"
- compound: "CCOC(=O)c1c(OCCCc2ccc(F)cc2)cc2ccc3ccccc3c2c1OCCCc1ccc(F)cc1"
  result: "103 % of control"
- compound: "COc1ccc(C(C#N)Nc2ccccc2)cc1 (stereo not drawn)"
  result: "109 % of control"
- compound: "CC(=O)Oc1cc([N+](=O)[O-])ccc1C(=O)O"
  result: "100 % of control"
- compound: "Cc1nc(N)c(=O)[nH]c1C"
  result: "91 % of control"
- compound: "O=C(O)CNC(=O)/C(=C\\c1[nH]c(=O)[nH]c(=O)c1Br)NC(=O)c1ccccc1"
  result: "100 % of control"
- compound: "NC(=O)CN1C(=O)c2ccccc2C1=O"
  result: "100 % of control"
- compound: "COC(=O)C(CSCSC)NC(=O)/C=C/c1ccccc1C (stereo not drawn)"
  result: "104 % of control"
- compound: "c1ccc(CCSc2ccccc2)cc1"
  result: "118 % of control"
